Attribution: patent US20230257396A1

# assayTarget: kinases (Homo sapiens, UniProt P36888, K663Q)
# Construct: purchased Eurofins/DiscoveRx; host or cells: E. coli BL21-derived host (T7 phage display) for most kinases; HEK-293 for the rest
# protocolNotes: KINOMEscan kinase binding assay (Eurofins/DiscoveRx), % Ctrl
# setupConditions: target FLT3(K663Q); 1 μM
parameterMeasured: % Ctrl, FLT3(K663Q) (% Ctrl)
Provide only the numeric value, understood in % Ctrl.

stdin: Which % Ctrl, FLT3(K663Q) reading was recorded for the molecule Cc1nn(C)c2c1-c1ccc3c(c1)/C(=C/c1[nH]ccc1C(=O)N(C)CCCO2)C(=O)N3 [Ex. 150] ?
stdout: 71

stdin: Try Cc1cc2c([nH]1)/C=C1\C(=O)Nc3ccc(cc31)-c1c(noc1C)CNCCN(C)C2=O [Ex. 139] next.
stdout: 44

stdin: Try CN1CCSCCOc2cc3c(cc2Cl)NC(=O)/C3=C\c2[nH]ccc2C1=O [Ex. 153] next.
stdout: 1.4

stdin: Try Cc1cc2c([nH]1)/C=C1\C(=O)Nc3ccc(cc31)-c1c(C)nn(C)c1COCCN(C)C2=O [Ex. 146] next.
stdout: 14

###

# assayTarget: kinases (Homo sapiens, UniProt P10721, D816V)
# Construct: purchased Eurofins/DiscoveRx; host or cells: E. coli BL21-derived host (T7 phage display) for most kinases; HEK-293 for the rest
# Sequence (P10721 26-976 D816V): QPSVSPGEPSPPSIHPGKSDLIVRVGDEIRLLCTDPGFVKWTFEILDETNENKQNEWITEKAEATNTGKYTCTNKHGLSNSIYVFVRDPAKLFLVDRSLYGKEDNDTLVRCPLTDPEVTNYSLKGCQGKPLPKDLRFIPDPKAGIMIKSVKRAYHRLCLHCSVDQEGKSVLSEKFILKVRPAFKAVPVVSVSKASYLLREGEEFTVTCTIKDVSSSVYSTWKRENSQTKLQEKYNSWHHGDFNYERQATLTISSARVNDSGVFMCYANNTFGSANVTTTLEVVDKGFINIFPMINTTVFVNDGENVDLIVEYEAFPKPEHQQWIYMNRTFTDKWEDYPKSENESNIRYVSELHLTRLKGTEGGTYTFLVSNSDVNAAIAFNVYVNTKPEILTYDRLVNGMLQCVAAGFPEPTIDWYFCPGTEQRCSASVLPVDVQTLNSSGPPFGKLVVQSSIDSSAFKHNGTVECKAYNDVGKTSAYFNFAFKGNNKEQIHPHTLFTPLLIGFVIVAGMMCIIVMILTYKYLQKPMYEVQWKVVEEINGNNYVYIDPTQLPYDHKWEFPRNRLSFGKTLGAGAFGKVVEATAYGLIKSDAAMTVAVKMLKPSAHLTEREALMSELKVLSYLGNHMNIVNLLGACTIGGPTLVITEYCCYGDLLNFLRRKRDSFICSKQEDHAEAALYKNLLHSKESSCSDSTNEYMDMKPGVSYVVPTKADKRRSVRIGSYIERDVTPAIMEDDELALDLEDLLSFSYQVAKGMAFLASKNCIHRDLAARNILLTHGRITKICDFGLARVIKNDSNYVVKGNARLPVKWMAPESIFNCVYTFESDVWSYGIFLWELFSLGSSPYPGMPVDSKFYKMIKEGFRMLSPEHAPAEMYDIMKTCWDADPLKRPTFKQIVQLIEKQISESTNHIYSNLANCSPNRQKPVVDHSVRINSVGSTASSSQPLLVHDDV
# protocolNotes: KINOMEscan kinase binding assay (Eurofins/DiscoveRx), % Ctrl
# setupConditions: 1 μM; KIT(D816V)
% Ctrl, KIT(D816V) under 80 % Ctrl gets MET, anything at or over 80 % Ctrl gets NOT MET.

stdin: Take the compound Cc1cc2c([nH]1)/C=C1\C(=O)Nc3ccc(cc31)OCCOCCN(C)C2=O and say whether its % Ctrl, KIT(D816V) is less than 80 % Ctrl.
stdout: MET

stdin: Try Cc1cc2c([nH]1)/C=C1\C(=O)Nc3ccc(cc31)O[C@@H](C)COCCN(C)C2=O next.
stdout: MET

stdin: Try Cc1cc2c([nH]1)/C=C1\C(=O)Nc3ccc(cc31)-c1ccnn1CCOCCNC2=O next.
stdout: NOT MET

stdin: Try Cc1cc2c([nH]1)/C=C1\C(=O)Nc3ccc(cc31)CN(C)C(=O)COCCNC2=O next.
stdout: MET

stdin: Try Cc1cc2c([nH]1)/C=C1\C(=O)Nc3ccc(cc31)-c1c(C)n[nH]c1CNCCN(C)C2=O next.
stdout: MET

stdin: Try Cc1cc2c([nH]1)/C=C1\C(=O)Nc3cc(Cl)c(cc31)OCCO[C@@H](C(=O)N(C)C)CN(C)C2=O next.
stdout: MET

stdin: Try Cc1cc2c([nH]1)/C=C1\C(=O)Nc3cnc(cc31)-c1cnn(C)c1COCCNC2=O next.
stdout: NOT MET

stdin: Try Cc1cc2c([nH]1)/C=C1\C(=O)Nc3ccc(cc31)-c1cnn(C)c1CN(C)CCN(C)C2=O next.
stdout: MET

###

# assayTarget: kinases (Homo sapiens, UniProt P00519, T315I)
# Construct: purchased Eurofins/DiscoveRx; host or cells: E. coli BL21-derived host (T7 phage display) for most kinases; HEK-293 for the rest
# protocolNotes: KINOMEscan kinase binding assay (Eurofins/DiscoveRx), % Ctrl
# setupConditions: target ABL1(T315I)-nonphosphorylated; 1 μM
% Ctrl, ABL1(T315I)-nonphosphorylated under 60 % Ctrl gets class 1, anything at or over 60 % Ctrl gets class 0.

stdin: Take the compound CN1CCSCCOc2cc3c(cc2Cl)NC(=O)/C3=C\c2[nH]ccc2C1=O and say whether its % Ctrl, ABL1(T315I)-nonphosphorylated is less than 60 % Ctrl.
stdout: class 1

stdin: Try CN1CCOCCOc2cc3c(cc2Cl)NC(=O)/C3=C\c2[nH]ccc2C1=O next.
stdout: class 1

stdin: Try Cc1cc2c([nH]1)/C=C1\C(=O)Nc3cc(Cl)c(cc31)OCCO[C@@H](C(=O)N1CCN(C)CC1)CN(C)C2=O next.
stdout: class 0

stdin: Try Cc1cc2c([nH]1)/C=C1\C(=O)Nc3ccc(cc31)-c1c(noc1C)CNCCN(C)C2=O next.
stdout: class 1

stdin: Try Cc1cc2c([nH]1)/C=C1\C(=O)Nc3cnc(cc31)-c1cn[nH]c1CNCCN(C)C2=O next.
stdout: class 1

stdin: Try Cc1cc2c([nH]1)/C=C1\C(=O)Nc3ccc(cc31)-c1c(C)nn(C)c1COCCN(C)C2=O next.
stdout: class 0

stdin: Try Cc1nn(C)c2c1-c1ccc3c(c1)/C(=C/c1[nH]ccc1C(=O)N(C)CCCO2)C(=O)N3 next.
stdout: class 0
